METHOD: Example 5: plasma pharmacokinetics of EN3202 20 mg in hepatic impairment vs healthy controls
CONDITION NOTES: human, plasma, oral, 20 mg, AUC, Subject 010 (Child-Pugh Class B)
REPORTED METRIC: AUC (ng·h/mL)
Just the number please, in ng·h/mL, no unit attached.

Lookup: Give the value of AUC reported for the following: CN1CC[C@]23c4c5ccc(O)c4O[C@H]2C(=O)CC[C@@]3(O)[C@H]1C5.Cl
Found: 43.7

* * *

METHOD: Example 5: plasma pharmacokinetics of EN3202 20 mg in hepatic impairment vs healthy controls
CONDITION NOTES: human, plasma, oral, 20 mg, median AUC, control group
REPORTED METRIC: AUC (ng·h/mL)
Only the number, expressed in ng·h/mL, is required.

Lookup: Report AUC, nothing else, for this compound: CN1CC[C@]23c4c5ccc(O)c4O[C@H]2C(=O)CC[C@@]3(O)[C@H]1C5.Cl [Oxymorphone]
Found: 23.8
